target: CDK20 (Homo sapiens, UniProt Q8IZL9)
Sequence (Q8IZL9 whole entry): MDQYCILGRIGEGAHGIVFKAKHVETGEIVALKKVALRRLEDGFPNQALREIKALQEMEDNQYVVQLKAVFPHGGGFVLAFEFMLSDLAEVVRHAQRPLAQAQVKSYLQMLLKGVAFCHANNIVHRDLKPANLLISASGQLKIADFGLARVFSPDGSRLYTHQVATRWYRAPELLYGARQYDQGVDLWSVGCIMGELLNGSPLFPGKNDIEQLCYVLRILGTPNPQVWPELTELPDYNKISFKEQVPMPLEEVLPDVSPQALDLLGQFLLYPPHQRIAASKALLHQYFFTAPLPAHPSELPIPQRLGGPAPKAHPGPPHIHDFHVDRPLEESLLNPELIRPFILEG
Parameter: Kd. Scope: all listed entries.
measure: Kd (µM)

| compound | qualifier_sign | endpoint_value |
| --- | --- | --- |
| CNC(=O)c1cc(Nc2ncc3ccc(-c4cn[nH]c4)cc3n2)c[nH]1 [ISM042-2-048] | = | 0.567 |
| CNC(=O)c1cc(Nc2ncc3ccc(=O)n(C4CCCC4)c3n2)c[nH]1 [ISM042-2-049] | = | 0.36 |
| CN(C)CCNC(=O)c1cc(Nc2ncc3ccccc3n2)c[nH]1 [ISM042-2-052] | = | 18.7 |
| CCc1ccc(-c2cccc3nc(NC4CCCC4)[nH]c23)[nH]c1=O [ISM042-2-015] | > | 30 |
| Cn1cc(Oc2ccnc(NC3(C)CC3)c2)cn1 [ISM042-2-004] | > | 30 |
| CN1CCN(CCNC(=O)c2cc(Nc3ncc4ccccc4n3)c[nH]2)CC1 [ISM042-2-053] | = | 17.7 |
| CNC(=O)c1cccc(Nc2ncc3ccccc3n2)c1 [ISM042-2-050] | = | 5.33 |
| c1cc(-c2nc3cnncc3s2)nc(N[C@H]2CCNC2)n1 [ISM042-2-025] | > | 30 |
| CNC(=O)c1cc(Nc2ncc3ccccc3n2)c[nH]1 [ISM042-2-001] | = | 9.2 |
